Attribution: ChEMBL document CHEMBL1127688

- Tested on: Rattus norvegicus
- method description: Blood pressure of the urethane-anesthetized normotensive Wistar rat was tested 15 min after inducing the compound on dose of 1.0 mg/kg
- Format: functional
measurement label: BP

- compound: "CC(C)NCC(O)COc1cccc2ccccc12 (configuration not stated) [PROPRANOLOL]"
  recorded result: "-6.5 mmHg"
- compound: "CCCCCCCCC(=O)NCc1ccc(OCC(O)CNCCCCC)c(OC)c1 (configuration not stated)"
  recorded result: "-0.88 mmHg"
- compound: "CCCCCCCCC(=O)NCc1ccc(OCC(O)CNCC(C)C)c(OC)c1 (configuration not stated)"
  recorded result: "1.63 mmHg"
- compound: "CCCCCCCCC(=O)NCc1ccc(OCC(O)CNC(C)CC)c(OC)c1 (configuration not stated)"
  recorded result: "3.33 mmHg"
- compound: "CCCCCCCCC(=O)NCc1ccc(OCC(O)CNC2CCCCC2)c(OC)c1 (configuration not stated)"
  recorded result: "-3.67 mmHg"
- compound: "CCCCCCCCC(=O)NCc1ccc(OCC(O)CNCCCC)c(OC)c1 (configuration not stated)"
  recorded result: "-1.22 mmHg"
- compound: "CCCCCCCCC(=O)NCc1ccc(OCC(O)CNC(C)(C)C)c(OC)c1 (configuration not stated)"
  recorded result: "2.38 mmHg"
- compound: "CCCCCCCCC(=O)NCc1ccc(OCC(O)CNC)c(OC)c1 (configuration not stated)"
  recorded result: "-0.56 mmHg"
- compound: "CCCCCCCCC(=O)NCc1ccc(OCC(O)CNC(C)C)c(OC)c1 (configuration not stated)"
  recorded result: "-2.89 mmHg"
- compound: "CCCCCCCCC(=O)NCc1ccc(OCC(O)CNCC)c(OC)c1 (configuration not stated)"
  recorded result: "1.11 mmHg"
- compound: "CCCCCCCCC(=O)NCc1ccc(OCC(O)CNC2CC2)c(OC)c1 (configuration not stated)"
  recorded result: "3.89 mmHg"
- compound: "CCCCCCCCC(=O)NCc1ccc(OCC(O)CNCCCCCC)c(OC)c1 (configuration not stated)"
  recorded result: "-4.44 mmHg"
